- Test System: FGFR4 (Homo sapiens (Human))
- Measurement Description: FGFR Enzymatic Assay (peptide phosphorylation, FRET), FGFR4
- Assay type: biochemical
- Experimental Parameters: ratio of IC50 data showing FGFR4 selectivity; pre-incubated for 5 to 10 minutes
Known FGFR1/FGFR4 of a selection of compounds

Q) Param readout= FGFR1/FGFR4; system= FGFR4 (Homo sapiens (Human)); entry= COc1cc(OC)c(F)c(N2Cc3cnc(-c4cncc(S(=O)(=O)N5CCOCC5)c4)cc3C3(CC3)C2=O)c1F [Example 14] ; returns value.
A) >25

Q) Repeat with COc1cc(OC)c(F)c(N2Cc3cnc(-c4cccnc4)cc3C3(CC3)C2=O)c1F [Example 9]
A) >5

Q) Same question, COc1cc(OC)c(F)c(N2Cc3cnc(-c4cncc(C(=O)N5CCOCC5)c4)cc3C3(CC3)C2=O)c1F [Example 13] this time
A) >50

Moving on to the next compound.
Q) Entry COc1cc(OC)c(F)c(N2Cc3cnc(-c4cncc(N5CCOCC5)c4)cc3C3(CC3)C2=O)c1F [Example 6] , system FGFR4 (Homo sapiens (Human)): what FGFR1/FGFR4 was measured?
A) >100

* * *

- Test System: FGFR3 enzyme (Homo sapiens (Human))
- Measurement Description: FGFR Enzymatic Assay (peptide phosphorylation, FRET), FGFR3
- Format: biochemical
- Experimental Parameters: IC50 ratio showing FGFR3 selectivity; pre-incubated for 4 hours
# FGFR4/FGFR3 per entry

Example entries begin here.
Q) Using the record for COc1cc(OC)c(F)c(N2Cc3cnc(-c4cnn(CCCN5CCOCC5)c4)cc3C3(CC3)C2=O)c1F , report its FGFR4/FGFR3.
A) >5

Q) Item: CCn1cc(N2C(=O)N(c3c(F)c(OC)cc(OC)c3F)Cc3cnc(-c4cn(C)nc4C)cc32)cn1
A) >10

Q) Next molecule: COc1cc(OC)c(F)c(N2Cc3cnc(-c4cn(C)nc4C)cc3N(CCc3cnn(C)c3)C2=O)c1F
A) >5

New cases:
Q) # input molecule: COc1cc(OC)c(F)c(N2Cc3cnc(-c4cnn(CCN5CCC(OC)CC5)c4)cc3C3(CC3)C2=O)c1F ; wanted: its FGFR4/FGFR3
A) >3

* * *

Overview of reported FGFR3/FGFR4 across a group of molecules:
- Test System: FGFR4 (Homo sapiens (Human), UniProt P22455)
- Sequence (P22455 22-802): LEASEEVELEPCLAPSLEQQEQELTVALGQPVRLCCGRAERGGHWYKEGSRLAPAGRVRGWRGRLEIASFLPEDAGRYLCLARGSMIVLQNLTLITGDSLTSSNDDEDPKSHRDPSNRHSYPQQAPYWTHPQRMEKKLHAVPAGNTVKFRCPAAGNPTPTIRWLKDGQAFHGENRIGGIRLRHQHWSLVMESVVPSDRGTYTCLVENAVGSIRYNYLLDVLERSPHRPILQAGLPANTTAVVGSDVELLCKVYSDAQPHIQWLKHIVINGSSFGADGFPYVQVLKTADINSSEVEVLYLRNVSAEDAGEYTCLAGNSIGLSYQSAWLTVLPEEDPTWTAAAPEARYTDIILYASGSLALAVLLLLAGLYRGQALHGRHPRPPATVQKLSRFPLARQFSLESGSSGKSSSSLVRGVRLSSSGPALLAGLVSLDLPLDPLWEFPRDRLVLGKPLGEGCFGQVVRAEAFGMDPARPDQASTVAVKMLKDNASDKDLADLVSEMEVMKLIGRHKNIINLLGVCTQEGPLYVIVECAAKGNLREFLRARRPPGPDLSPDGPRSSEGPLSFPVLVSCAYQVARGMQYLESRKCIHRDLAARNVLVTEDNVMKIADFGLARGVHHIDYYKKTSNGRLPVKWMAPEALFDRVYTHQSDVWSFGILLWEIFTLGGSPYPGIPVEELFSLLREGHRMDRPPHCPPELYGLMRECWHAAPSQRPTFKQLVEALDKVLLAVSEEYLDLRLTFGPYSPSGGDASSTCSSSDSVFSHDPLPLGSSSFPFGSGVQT
- Measurement Description: FGFR Enzymatic Assay (peptide phosphorylation, FRET), FGFR4
- Type: biochemical
- Experimental Parameters: IC50 ratio showing FGFR4 selectivity; pre-incubated for 4 hours

Q) So what FGFR3/FGFR4 did COc1cc(OC)c(F)c(N2Cc3cnc(-c4cncc(NS(C)(=O)=O)c4)cc3C3(CC3)C2=O)c1F get with FGFR4 (Homo sapiens (Human), UniProt P22455)?
A) >10

Q) Let us now turn to COc1cc(OC)c(F)c(N2Cc3cnc(-c4[nH]ncc4C#N)cc3C3(CC3)C2=O)c1F
A) >10

Others:
Q) Item COc1cc(OC)c(F)c(N2Cc3cnc(-c4nn(CC5CCOCC5)cc4C#N)cc3C3(CC3)C2=O)c1F with FGFR4 (Homo sapiens (Human), UniProt P22455) - FGFR3/FGFR4?
A) >50

* * *

- Test System: FGFR3 enzyme (Homo sapiens (Human))
- Measurement Description: FGFR Enzymatic Assay (peptide phosphorylation, FRET), FGFR3
- Assay type: biochemical
- Experimental Parameters: IC50 ratio showing FGFR3 selectivity; pre-incubated for 4 hours
- Method: The inhibitor potency of the exemplified compounds was measured in an enzyme assay that measures peptide phosphorylation using FRET measurements to detect product formation. Inhibitors were serially diluted in DMSO and a volume of 0.5 μL was transferred to the wells of a 384-well plate. GraphPad prism3 was used to analyze the data.
Endpoint: FGFR4/FGFR3

Q) Need FGFR4/FGFR3 of COc1cc(OC)c(F)c(N2Cc3cnc(-c4cn(C)nc4C)cc3N(c3cncnc3)C2=O)c1F [Example 61] , thanks.
A) >5

Pending compound:
Q) Which value of FGFR4/FGFR3 has been reported for COc1cc(OC)c(F)c(N2Cc3cnc(-c4cn(C)nc4C)cc3N(c3cncc(C)n3)C2=O)c1F [Example 87] in the records?
A) >10

* * *

- Test System: FGFR3 enzyme (Homo sapiens (Human))
- Measurement Description: FGFR Enzymatic Assay (peptide phosphorylation, FRET), FGFR3
- Format: biochemical
- Experimental Parameters: IC50 ratio showing FGFR3 selectivity; pre-incubated for 4 hours
Endpoint: FGFR4/FGFR3

Record excerpt, results attached:
Q) Short answer please: FGFR4/FGFR3, FGFR3 enzyme (Homo sapiens (Human)), entry COc1cc(OC)c(F)c(N2Cc3cnc(-c4cn(C)nc4C)cc3N(Cc3ccc(F)cc3)C2=O)c1F
A) >10

Q) Same question, COc1cc(OC)c(F)c(N2Cc3cnc(-c4cn(C)nc4C)cc3N(c3ccc(C#N)cc3)C2=O)c1F this time
A) >10

Q) // query: COc1cc(OC)c(F)c(N2Cc3cnc(-c4cn(C)nc4C)cc3N(C3CCN(C(C)=O)CC3)C2=O)c1F
A) >5

Q) Same for COc1cc(OC)c(F)c(N2Cc3cnc(-c4cnn(CC5CN(C(C)=O)C5)c4)cc3C3(CC3)C2=O)c1F
A) >3

Further cases:
Q) Hello, I am looking for reported FGFR4/FGFR3 with FGFR3 enzyme (Homo sapiens (Human)) for CCN1C(=O)N(c2c(F)c(OC)cc(OC)c2F)Cc2cnc(-c3ccc(C(N)=O)nc3)cc21 . Could you help?
A) >5

Q) Please answer likewise for COc1cc(OC)c(F)c(N2Cc3cnc(-c4cnn(CC5CN(S(C)(=O)=O)C5)c4)cc3C3(CC3)C2=O)c1F
A) >3

* * *

- Test System: FGFR3 enzyme (Homo sapiens (Human), UniProt P22607)
- Sequence (P22607 23-806): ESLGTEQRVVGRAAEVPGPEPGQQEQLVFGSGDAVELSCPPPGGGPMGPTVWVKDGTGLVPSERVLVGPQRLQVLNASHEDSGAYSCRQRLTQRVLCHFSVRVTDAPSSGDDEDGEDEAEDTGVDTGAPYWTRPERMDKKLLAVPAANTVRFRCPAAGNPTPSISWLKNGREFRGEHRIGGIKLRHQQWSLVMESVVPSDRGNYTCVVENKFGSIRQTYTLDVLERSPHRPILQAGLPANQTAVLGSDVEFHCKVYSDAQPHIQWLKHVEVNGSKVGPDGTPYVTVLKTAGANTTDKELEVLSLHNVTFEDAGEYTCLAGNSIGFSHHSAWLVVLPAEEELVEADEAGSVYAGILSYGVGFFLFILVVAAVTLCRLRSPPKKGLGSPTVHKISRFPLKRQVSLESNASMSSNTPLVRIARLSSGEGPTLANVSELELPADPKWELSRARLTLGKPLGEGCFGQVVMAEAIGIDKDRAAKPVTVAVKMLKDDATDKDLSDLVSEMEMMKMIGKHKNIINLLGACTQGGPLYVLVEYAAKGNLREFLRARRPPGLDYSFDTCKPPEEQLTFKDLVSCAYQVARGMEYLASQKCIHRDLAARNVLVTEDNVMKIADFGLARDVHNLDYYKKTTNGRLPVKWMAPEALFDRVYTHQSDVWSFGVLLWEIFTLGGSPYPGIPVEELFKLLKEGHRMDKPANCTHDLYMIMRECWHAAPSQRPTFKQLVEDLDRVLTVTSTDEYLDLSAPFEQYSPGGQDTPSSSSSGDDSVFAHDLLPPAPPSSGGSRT
- Measurement Description: FGFR Enzymatic Assay (peptide phosphorylation, FRET), FGFR3
- Format: biochemical
- Experimental Parameters: IC50 ratio showing FGFR3 selectivity; pre-incubated for 4 hours
- Procedure: The inhibitor potency of the exemplified compounds was measured in an enzyme assay that measures peptide phosphorylation using FRET measurements to detect product formation. Inhibitors were serially diluted in DMSO and a volume of 0.5 μL was transferred to the wells of a 384-well plate. GraphPad prism3 was used to analyze the data.
Endpoint: FGFR1/FGFR3

Worked cases, answers included:
Q) Which measured FGFR1/FGFR3 belongs to CCN1C(=O)N(c2c(F)c(OC)cc(OC)c2F)Cc2cnc(-c3ccc(C(=O)NCCO)nc3)cc21 , tested on FGFR3 enzyme (Homo sapiens (Human), UniProt P22607)?
A) >5

Q) Another compound: COc1cc(OC)c(F)c(N2Cc3cnc(-c4cn(C)nc4C)cc3N(Cc3cccnn3)C2=O)c1F
A) >5

Q) Now the same for COc1cc(OC)c(F)c(N2Cc3cnc(-c4cnn(CC5CN(S(C)(=O)=O)C5)c4)cc3C3(CC3)C2=O)c1F
A) >3

Q) Consider next the compound COc1cncc(-c2cc3c(cn2)CN(c2c(F)c(OC)cc(OC)c2F)C(=O)C32CC2)c1 in the same way.
A) >1

Further cases:
Q) What reported FGFR1/FGFR3 corresponds to COc1cc(OC)c(F)c(N2Cc3cnc(-c4cnn(CCCN5CCOCC5)c4)cc3C3(CC3)C2=O)c1F on FGFR3 enzyme (Homo sapiens (Human), UniProt P22607)?
A) >5

Q) Then COc1cc(OC)c(F)c(N2Cc3cnc(-c4cn(Cc5cccnc5)nc4C)cc3C3(CC3)C2=O)c1F ?
A) >5

Q) Now try COc1cc(OC)c(F)c(N2Cc3cnc(-c4cncc(F)c4)cc3C3(CC3)C2=O)c1F .
A) >3

* * *

- Test System: FGFR3 enzyme (Homo sapiens (Human))
- Measurement Description: FGFR Enzymatic Assay (peptide phosphorylation, FRET), FGFR3
- Format: biochemical
- Experimental Parameters: IC50 ratio showing FGFR3 selectivity; pre-incubated for 4 hours
Endpoint: FGFR4/FGFR3

Q) Record request: FGFR4/FGFR3 value, item CCN1C(=O)N(c2c(F)c(OC)cc(OC)c2F)Cc2cnc(-c3ccc(C4(C#N)CC4)cc3)cc21
A) >10

New cases:
Q) Could you tell me which FGFR4/FGFR3 is on file for CCn1cc(CN2C(=O)N(c3c(F)c(OC)cc(OC)c3F)Cc3cnc(-c4cn(C)nc4C)cc32)cn1 ?
A) >10

Q) Then what about the compound COc1cc(OC)c(F)c(N2Cc3cnc(-c4cn(C)nc4C)cc3N(c3ncccn3)C2=O)c1F ?
A) >5

* * *

- Test System: FGFR3 enzyme (Homo sapiens (Human))
- Measurement Description: FGFR Enzymatic Assay (peptide phosphorylation, FRET), FGFR3
- Format: biochemical
- Experimental Parameters: IC50 ratio showing FGFR3 selectivity; pre-incubated for 4 hours
- Experimental: The inhibitor potency of the exemplified compounds was measured in an enzyme assay that measures peptide phosphorylation using FRET measurements to detect product formation. Inhibitors were serially diluted in DMSO and a volume of 0.5 μL was transferred to the wells of a 384-well plate. GraphPad prism3 was used to analyze the data.
Endpoint: FGFR4/FGFR3

Worked cases, answers included:
Q) Requested read-out FGFR4/FGFR3, target or system FGFR3 enzyme (Homo sapiens (Human)), entry COc1cc(OC)c(F)c(N2Cc3cnc(-c4cn(C)nc4C)cc3N(c3cccc(F)c3)C2=O)c1F
A) >5

Q) Record: CCN1C(=O)N(c2c(F)c(OC)cc(OC)c2F)Cc2cnc(-c3cn(CCN4CCOCC4)nc3C)cc21
A) >1

Q) And the next one, CCn1cc(-c2cc3c(cn2)CN(c2c(F)c(OC)cc(OC)c2F)C(=O)C32CC2)c(C)n1 ?
A) >3

Q) // same read-out, input: COc1cc(OC)c(F)c(N2Cc3cnc(-c4cn(C)nc4C)cc3N(C[C@H]3CCOC3)C2=O)c1F
A) >3

Q) And then COc1cc(OC)c(F)c(N2Cc3cnc(-c4cn(C)nc4C)cc3N(Cc3ccc(F)c(F)c3)C2=O)c1F , what is it?
A) >10

Continuing:
Q) Form field - read-out: FGFR4/FGFR3; system: FGFR3 enzyme (Homo sapiens (Human)); submitted item: COc1cc(OC)c(F)c(N2Cc3cnc(-c4cn(C)nc4C)cc3N(c3cnc(C)cn3)C2=O)c1F
A) >10

Q) Another compound to check: COc1cc(OC)c(F)c(N2Cc3cnc(-c4cn(C)nc4C)cc3N(Cc3cnn(C4CC4)c3)C2=O)c1F
A) >10
